Tested on: Rhizoctonia solani (Rs)
Experiment: In vitro pathogen growth inhibition assay, Rs (mycelial plugs)
Assay type: cell-based
Details: Rhizoctonia solani, 48 h, ≥90% growth inhibition; mycelial plugs; 48 hours; vs 2% DMSO control; read-out: Compound Concentration (ppm) sufficient for ≥90% inhibition of Rs
In this section, each of the molecules is paired with its reported IC90.
Recorded Metric: IC90

1. COc1ccc(Br)cc1[C@H](Cn1c(=O)n(C(C)(C)C(=O)NC(C)C)c(=O)c2c(C)c(-n3nccn3)sc21)OCC(C)(C)C#N = > 50 µg/mL
2. COCCO[C@@H](Cn1c(=O)n(C(C)(C)C(=O)NC2CCCCC2)c(=O)c2c(C)c(-n3cccn3)sc21)c1cc(F)ccc1OC = > 50 µg/mL
3. COc1ccc(F)cc1[C@H](Cn1c(=O)n([C@H](C)C(=O)N2CCCC2)c(=O)c2c(C)c(-n3cccn3)sc21)OCCC#N = > 50 µg/mL
